The values you see were collected from PubChem BioAssay (NCATS).

# MEASUREMENT DESCRIPTION: Cell Viability - LYMP2-006 (AID 978);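 note: cells exposed to compound for 24 hours; % is set by controls: 0 for no effect and ±100 for the full control effect; nearly all actives have a fitted effect of over 60% in size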
# EXPERIMENTAL PARAMETERS: LYMP2-006 lymphoblastoid cell viability, qHTS; series mostly up to 92.2 µM
Inconclusive results are not listed. Calls of active or inactive are those of the source. Calls come from the whole dose curve; as a rule, active = well fitted cell-killing curve with a large enough effect; inconclusive = small, poorly fitted or top-dose-only effect; inactive = flat fitted curve, though single readings scatter.
READOUT TYPE: outcome

The cases that follow already have their outcome on record.
# outcome of C=C(Cl)CCl = inactive

Looking up CN(C)C(=O)Cl , I found its outcome recorded as inactive

Record Oc1cccc(Cl)c1 . Reported outcome: inactive

Measured outcome of FC(Cl)(Cl)Cl : inactive

Record Nn1cnnc1 , field outcome: inactive

Item: C/C=C/C=O | outcome: inactive

Next:
Kindly note the recorded outcome for CCCCNC(=O)n1c(NC(=O)OC)nc2ccccc21 , which is inactive

In plain terms, N#CCBr has a documented outcome of inactive

Quick note, outcome for NC1CCC(CC2CCC(N)CC2)CC1 (centres undefined) landed at inactive

* * *

# ASSAY SYSTEM: Cytochrome P450 1A2 (Homo sapiens) (UniProt P05177)
# Sequence (P05177 whole entry, looked up): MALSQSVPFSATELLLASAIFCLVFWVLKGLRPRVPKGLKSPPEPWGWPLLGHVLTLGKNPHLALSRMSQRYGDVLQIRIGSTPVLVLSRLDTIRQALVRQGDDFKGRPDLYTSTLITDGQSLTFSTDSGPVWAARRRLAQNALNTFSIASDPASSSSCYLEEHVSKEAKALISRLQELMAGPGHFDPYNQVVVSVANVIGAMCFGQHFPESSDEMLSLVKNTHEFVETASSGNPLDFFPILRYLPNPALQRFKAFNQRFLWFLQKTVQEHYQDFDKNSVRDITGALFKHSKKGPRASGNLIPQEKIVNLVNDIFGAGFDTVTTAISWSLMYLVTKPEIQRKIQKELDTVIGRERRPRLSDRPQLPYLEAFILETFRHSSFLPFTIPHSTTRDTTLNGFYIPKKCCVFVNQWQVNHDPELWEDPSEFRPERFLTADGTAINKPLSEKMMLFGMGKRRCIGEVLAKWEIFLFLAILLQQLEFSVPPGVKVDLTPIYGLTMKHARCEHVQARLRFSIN
# MEASUREMENT DESCRIPTION: p450-cyp1a2 (AID 410)
# EXPERIMENTAL PARAMETERS: recombinant CYP1A2, luciferin-ME demethylation, luminescence; series mostly up to 11.4 µM
Records with an inconclusive call do not appear. Active and inactive are the calls of the source. Calls come from the whole dose curve.
Mark one answer only. Choices: true = active, false = inactive

Answered examples (4):
Status in this test for COc1ccccc1CN1CCCC2(CCN(C(=O)Oc3ccccc3)CC2)C1 ? false

Kindly provide the recorded test outcome for the following compound: Oc1ccc([C@H](O)[C@@H]2CCCCN2)cc1O false

What was the test verdict on C[C@@H](Cc1ccc(O)cc1)NC[C@@H](O)c1cc(O)cc(O)c1 ? false

Could you kindly confirm the outcome this assay logged for c1cncc(CNCCN2CCNCC2)c1 ? false

Further cases:
Which outcome was assigned to COc1ccc(C[C@@H]2NC[C@H](O)[C@@H]2OC(C)=O)cc1 in this test? false

I'd appreciate the recorded outcome for NCCc1c[nH]c2ccc(OC(=O)C(=O)O)cc12 from this test. true

How did this test come out for O=C(O)c1cc(N=Nc2ccc([As](=O)(O)O)cc2)ccc1O ? false

* * *

# Lookup of reported max response keyed by entry
# MEASUREMENT DESCRIPTION: qHTS assay for small molecule agonists of the antioxidant response element (ARE) signaling pathway measured by Nrf2-dependant transcriptional activity - cell viability counter screen (AID 720653); note: % is set by controls: 0 for no effect and ±100 for the full control effect
# EXPERIMENTAL PARAMETERS: ARE-bla HepG2 viability, CellTiter-Glo ATP luminescence, 16 h; stronger effect = lower value
Results filed as inconclusive are left out.
Numbers only; they are read as %.

Worked examples, 2 compounds total:
The reported value for CN(C)c1ccccc1 in terms of max response is 12.1

Please fill in: max response reported for Cc1cc(C)cc(OP(=O)(Oc2cc(C)cc(C)c2)Oc2cc(C)cc(C)c2)c1 = -9.8

Read the next record carefully.
Quick note, max response for CCCCOC(C)=O landed at 10.3

* * *

# MEASUREMENT DESCRIPTION: Cell Viability - LYMP2-020 (AID 986);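 note: cells exposed to compound for 24 h at 37 °C; plate controls were DMSO only for no effect and tetraoctylammonium bromide at 92 µM for full effect; nearly all actives have a fitted effect of over 55% in size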
# EXPERIMENTAL PARAMETERS: series mostly up to 92.2 µM
Inconclusive results are not listed. The source made the active and inactive calls. The call rests on the fitted dose curve; in most records, active means well fitted cell-killing curve with a large enough effect; inconclusive means small, poorly fitted or top-dose-only effect; inactive means flat fitted curve, though single readings scatter.
Give your call using only these classes: 1 (yes) for active, 0 (no) for inactive

Which result was noted for this compound in the test: C=CCO 0 (no)

More entries:
Write down the call the test reported for this compound. Item: O=C(Cl)c1ccccc1F 0 (no)

Dear all, I need the recorded test outcome for CCCCCc1cc(O)cc(O)c1 , thank you. 0 (no)

Record lookup: outcome of this test for CCC[N+](=O)[O-] ? 0 (no)

Recorded test call requested for O=[N+]([O-])c1ccc(Cl)c(Cl)c1Cl 0 (no)
